Provenance of the data: PubChem BioAssay AID328

Here, each record is paired with measured T/C data.
- System: BDF1 mice, P388 leukemia ip, median survival T/C
- test.summary: NCI In Vivo Anticancer Drug Screen. Data for tumor model P388 Leukemia (intraperitoneal) in B6D2F1 (BDF1) mice
- conditions.used: endpoint: median survival time; dose: 100.0 mg/kg/injection; schedule: Q04DX003 (ip); vehicle: saline with Tween-80; higher = longer survival
Toxic doses and inconclusive results are not listed.

Consider the following illustrative entries.
molecule	recorded.metric	result
Cc1cccc(Cl)c1NC(=O)CCCl	T/C	90 % of control
NC(=O)NC(=O)/C=C/C(=O)O	T/C	91 % of control
c1ccc(CSc2ncnc3nc[nH]c23)nc1	T/C	100 % of control

Let's switch to this molecule now.
Prompt: Quick one: T/C for CCCCCCCCCCCCCCCC(=O)N(c1ccc(N)cc1)C(C)CCCN(CC)CC (stereo unspecified) ?
Response: 90 % of control

---

- Tested on: BDF1 mice, P388 leukemia ip, median survival T/C
- test.summary: NCI In Vivo Anticancer Drug Screen. Data for tumor model P388 Leukemia (intraperitoneal) in B6D2F1 (BDF1) mice
- conditions.used: endpoint: median survival time; dose: 50.0 mg/kg/injection; schedule: Q01DX005 (ip); vehicle: saline with Tween-80; higher = longer survival
Toxic doses and inconclusive results are not listed.
Here, each record is paired with measured T/C data.

Consider the following illustrative entries.
compound	T/C
Cc1cccc(/C=N/Nc2ccccn2)n1	108 % of control
O=C1C=CC(=O)N1c1ccc(-c2nc3ccccc3o2)cc1	121 % of control
O=C1c2c(O)ccc(O)c2C(=O)c2c(NCCOCCO)ccc(NCCOCCO)c21	100 % of control
O=C(CNC(=O)n1ccnc1)N/N=C/c1ccccc1O	102 % of control
Cc1ccc(N2CC(=O)N3CCCC(c4ccccc4)N3C(=O)C2)cc1 (stereo not drawn)	97 % of control

Prompt: Quick one: T/C for CC1(C)O[C@]2(C)CC[C@@H]1[C@H](O)[C@@H]2N1CCCC1 ?
Response: 111 % of control

Prompt: Quick one: T/C for COc1cc2c(cc1OC)[C@H]1Cc3cc(OC)c(OC)cc3[C@@H](C2)N1C(C)=O ?
Response: 91 % of control

Prompt: Quick one: T/C for N/C(=N\OC(=O)NC(Cl)=C(Cl)Cl)c1ccc(Cl)cc1 ?
Response: 92 % of control

---

- Test system: BDF1 mice, P388 leukemia ip, median survival T/C
- test.summary: NCI In Vivo Anticancer Drug Screen. Data for tumor model P388 Leukemia (intraperitoneal) in B6D2F1 (BDF1) mice
- conditions.used: endpoint: median survival time; dose: 25.0 mg/kg/injection; schedule: Q04DX003 (ip); vehicle: saline with Tween-80; higher = longer survival
Inconclusive results and toxic doses are left out.
Here, each record is paired with measured T/C data.

Consider the following illustrative entries.
compound	T/C
CCCCCCCCCCCCNC	109 % of control
CSC(=S)N/N=C(\C)c1ccccn1	92 % of control
O=C1N(Cl)C(=O)C(c2ccc(Cl)cc2)(c2ccc(Cl)cc2)N1Cl	104 % of control
COc1cc2ccc3c4cc5c(cc4cnc3c2cc1OC)OCO5	100 % of control
O=C1C=CCCCC1	103 % of control

Prompt: Quick one: T/C for CNC(C)(C)C(SS)c1ccc(Cl)cc1 (centres undefined) ?
Response: 101 % of control

Prompt: Quick one: T/C for O=C(/C=C/c1ccc(Cl)c(Cl)c1)c1ccc(Cl)cc1 ?
Response: 100 % of control

Prompt: Quick one: T/C for O=c1[nH]c2ccccc2nc1CBr ?
Response: 113 % of control

Prompt: Quick one: T/C for Fc1nc2nc(C(F)(F)F)[nH]c2nc1F ?
Response: 105 % of control

Prompt: Quick one: T/C for c1cc2ccsc2cn1 ?
Response: 95 % of control

Prompt: Quick one: T/C for NC(=O)NC(=O)/C=C/C(=O)O ?
Response: 91 % of control

Prompt: Quick one: T/C for O=c1c2cccc3cccc(c32)c2nc3ccccc3n12 ?
Response: 112 % of control

Prompt: Quick one: T/C for CC(=O)c1ccccc1OCC(O)CN1CCN(c2ccccc2)CC1 (centres undefined) ?
Response: 113 % of control

Prompt: Quick one: T/C for CC(C)CC(CC(C)C)NCC(C)OC(=O)c1ccc(N)cc1 (centres undefined) ?
Response: 114 % of control
